Values compiled from ChEMBL document CHEMBL3714716.

# experimental system: Relaxin receptor 1 (Homo sapiens) (UniProt Q9HBX9)
# Sequence (Q9HBX9 whole entry): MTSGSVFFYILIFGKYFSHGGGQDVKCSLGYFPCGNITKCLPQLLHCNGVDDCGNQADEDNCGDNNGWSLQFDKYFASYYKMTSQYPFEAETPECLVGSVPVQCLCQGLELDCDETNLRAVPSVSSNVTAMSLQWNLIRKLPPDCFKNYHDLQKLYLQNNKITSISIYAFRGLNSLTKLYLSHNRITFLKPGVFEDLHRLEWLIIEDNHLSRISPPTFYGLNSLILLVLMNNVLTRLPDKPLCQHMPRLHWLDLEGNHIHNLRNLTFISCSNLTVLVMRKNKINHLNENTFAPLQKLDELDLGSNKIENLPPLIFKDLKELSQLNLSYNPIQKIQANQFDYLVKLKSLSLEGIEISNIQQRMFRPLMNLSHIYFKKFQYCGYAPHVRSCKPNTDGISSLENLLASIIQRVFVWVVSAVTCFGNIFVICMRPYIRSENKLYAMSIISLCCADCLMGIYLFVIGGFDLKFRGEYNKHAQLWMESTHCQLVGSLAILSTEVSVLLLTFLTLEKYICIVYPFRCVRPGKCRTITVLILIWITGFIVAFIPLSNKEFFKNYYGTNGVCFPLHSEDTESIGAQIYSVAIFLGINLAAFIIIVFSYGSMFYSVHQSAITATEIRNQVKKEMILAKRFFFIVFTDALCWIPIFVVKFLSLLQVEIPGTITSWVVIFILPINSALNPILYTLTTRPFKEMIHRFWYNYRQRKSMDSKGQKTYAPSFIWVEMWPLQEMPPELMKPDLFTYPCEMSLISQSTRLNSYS
# protocol details: Agonist activity at RXFP1 receptor (unknown origin) expressed in HEK293 cells assessed as stimulation of cAMP production incubated for 30 mins by TR-FRET based HTRF assay relative to forskolin
# Type: functional, cell-based
Calls of active or inactive are those of the source. The rule behind the calls is not given here.

compound | %max
O=C(Nc1cccc(C(F)(F)F)c1)c1ccccc1NC(=O)c1ccccc1C(F)(F)F | 70%
O=C(Nc1cccc(S(=O)(=O)C(F)(F)F)c1)c1ccccc1NC(=O)c1ccccc1OCC(F)(F)F | 97%
O=C(Nc1cccc(SC(F)(F)F)c1)c1ccccc1NC(=O)C1CCCCC1 | 90%
O=C(Nc1cccc(C(F)(F)F)c1)c1ccccc1NC(=O)c1ccccc1OC(F)(F)F | 96%
O=C(Nc1ccccc1C(=O)Nc1cccc(C(F)(F)F)c1)c1ccc(C(F)(F)F)cc1 | 93%
O=C(Nc1ccccc1[N+](=O)[O-])c1ccccc1NC(=O)C1CCCCC1 | inactive
COc1cccc(NC(=O)c2ccccc2NC(=O)C2CCCCC2)c1 | 74%
Cc1ccc(C(=O)Nc2ccccc2C(=O)Nc2cccc(C(F)(F)F)c2)cc1 | 85%
N#Cc1ccc(C(=O)Nc2ccccc2C(=O)Nc2cccc(C(F)(F)F)c2)cc1 | 96%
O=C(Nc1cccc(I)c1)c1ccccc1NC(=O)C1CCCCC1 | 84%
CCOc1ccccc1C(=O)Nc1ccccc1C(=O)Nc1cccc(S(=O)(=O)C(F)(F)F)c1 | 99%
CCOc1ccccc1C(=O)Nc1cccnc1C(=O)Nc1cccc(S(=O)(=O)C(F)(F)F)c1 | 73%
COc1cccc(OC)c1C(=O)Nc1ccccc1C(=O)Nc1cccc(C(F)(F)F)c1 | 42%
CSc1cccc(NC(=O)c2ccccc2NC(=O)C2CCCCC2)c1 | 84%
O=C(Nc1cccc(-c2cccs2)c1)c1ccccc1NC(=O)C1CCCCC1 | 31%
O=C(Nc1ccccc1C(=O)Nc1cccc(C(F)(F)F)c1)c1ccccc1I | 80%
CCOc1ccccc1C(=O)Nc1ccccc1C(=O)Nc1cccc(C(F)(F)F)c1 | 94%
CCOc1ccccc1-c1nc2ccccc2c(=O)n1-c1cccc(-c2nnn[nH]2)c1 | 36%
O=C(Cc1ccccc1)Nc1ccccc1C(=O)Nc1cccc(C(F)(F)F)c1 | 86%
CC(=O)c1ccc(C(=O)Nc2ccccc2C(=O)Nc2cccc(C(F)(F)F)c2)cc1 | 71%
O=C(Nc1ccccc1Br)c1ccccc1NC(=O)C1CCCCC1 | inactive
COc1ccccc1C(=O)Nc1ccccc1C(=O)Nc1cccc(N2CCCCC2)c1 | 77%
O=CNc1ccccc1C(=O)Nc1cccc(C(F)(F)F)c1 | 78%
O=C(Nc1ccccc1C(=O)Nc1cccc(C(F)(F)F)c1)c1ccc(Cl)cc1 | 95%
O=C(NCc1ccc(C(F)(F)F)cc1)c1ccccc1NC(=O)C1CCCCC1 | inactive
O=C(Nc1ccccc1C(=O)Nc1cccc(C(F)(F)F)c1)c1ccc2ccccc2c1 | 85%
O=C(Nc1ccccc1C(=O)Nc1cccc(C(F)(F)F)c1)c1ccncc1 | 51%
CC1CCC(C(=O)Nc2ccccc2C(=O)Nc2cccc(C(F)(F)F)c2)CC1 (stereo unspecified) | 92%
CCOc1ccccc1C(=O)Nc1cnccc1C(=O)Nc1cccc(S(=O)(=O)C(F)(F)F)c1 | 99%
COc1ccccc1C(=O)N(C)c1ccccc1C(=O)Nc1cccc(C(F)(F)F)c1 | inactive
COc1ccccc1C(=O)Nc1ccccc1C(=O)Nc1cccc(-c2cccs2)c1 | inactive
O=C(Nc1cccc(C(F)(F)F)c1)c1ccccc1NC(=O)c1cccc2nc[nH]c12 | 90%
O=C(Nc1cccc(C(F)(F)F)c1)c1ccccc1NC(=O)c1ccccc1Oc1ccccc1 | 97%
O=C(Nc1cccc(C(F)(F)F)c1)c1ccccc1-c1ccccc1 | inactive
CCOc1ccccc1C(=O)Nc1ccccc1C(=O)Nc1cccc(C(=N)N)c1 | inactive
CC(C)(C)c1cccc(NC(=O)c2ccccc2NC(=O)C2CCCCC2)c1 | 70%
Cc1cccc(C(=O)Nc2ccccc2C(=O)Nc2cccc(C(F)(F)F)c2)c1 | 92%
O=C(Nc1cccc(C(F)(F)F)c1)c1ccccc1Nc1ccccc1 | 84%
O=C(Nc1cccc(C(F)(F)F)c1)c1ccccc1Nc1cccc(C(F)(F)F)c1 | 93%
O=C(Nc1cccc(-c2ccccc2C(F)(F)F)c1)c1ccccc1NC(=O)C1CCCCC1 | 74%
O=C(Nc1cccc(S(=O)(=O)C(F)(F)F)c1)c1ccccc1NC(=O)C1CCCCC1 | 87%
